method-notes: Primary imaging screen for DUSP6 inhibitors that restore phospho-Erk in transfected HeLa cells, chemical complementation (AID 609)
conditions-used: HeLa MKP-3 transfected, phospho-Erk imaging KS statistic; measured here: nuclear c-Myc green intensity z-score; at 10 µM
Would you mind telling me the reported z-score of each entry?
Hey, just send me the number, nothing else.

q: Any idea what z-score was measured for CN1CCc2c(c(N3CCCCC3)nc3n[nH]c(N)c23)C1 ?
a: -1.56

q: Quick one: CCCCSP1(=S)NCCCN1
a: -0.994

q: Quick one: O=c1[nH]c(=O)n(Cc2ccco2)c(O)c1C=NCc1ccc2c(c1)OCO2
a: -1.79

q: Quick one: CCCC12CN3CN(C1)CC(CCC)(C3)C2O (stereo unspecified)
a: 1.99

q: Quick one: CN1CC=C2C(C#N)=C(N)C(C#N)(C#N)C(c3ccncc3)C2C1 (stereo unspecified)
a: 3.38

q: Quick one: O=C(c1ccco1)C12CN3CN(CN(C3)C1)C2
a: 0.212

q: Quick one: C=CCOC(=O)C1=C(C)OC(N)=C(C#N)C12C(=O)N(CN1CCOCC1)c1ccccc12 (stereo unspecified)
a: 0.314

q: Quick one: O=c1[nH]c(=O)n(CCc2ccccc2)c(O)c1C=NCCCn1ccnc1
a: -0.0547

q: Quick one: Cc1c2ccncc2c(C)c2c1[nH]c1ccccc12
a: 0.964

q: Quick one: CC1(C)CC(n2[nH]c(=O)c3c2NC(=O)CSC3c2ccccc2)CCO1 (stereo unspecified)
a: 0.684

q: Quick one: CC1=C(C(=O)OC(C)C)[C@]2(C(=O)N(CC(N)=O)c3ccccc32)C(C#N)=C(N)O1
a: -0.385
